Target System: proliferating cell nuclear antigen (PCNA) (UniProt P12004 1-261)
Sequence (P12004 whole entry): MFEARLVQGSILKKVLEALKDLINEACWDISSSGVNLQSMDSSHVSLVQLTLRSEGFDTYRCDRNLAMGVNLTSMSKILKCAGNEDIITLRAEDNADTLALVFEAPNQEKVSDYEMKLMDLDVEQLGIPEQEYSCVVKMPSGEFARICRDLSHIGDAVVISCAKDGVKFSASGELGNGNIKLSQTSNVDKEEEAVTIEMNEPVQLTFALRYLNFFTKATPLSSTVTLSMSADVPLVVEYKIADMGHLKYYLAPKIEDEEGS
Assay Overview: ITC
Each item that follows carries a reported dH.
Note: unit kcal/mol is implicit; provide only the numeric part.

The following binders have reported results that may help.
> print(dat)
                                     binder  measurement.name       uom  experimental.value
1  Ac-KRKKQTSMTDFYHSRKK-NH2 [p21_(SWAP) peptide]                dH  kcal/mol               -17.7
2  Ac-RRRRQTSMTDFYHSRRR-NH2 [p21_(All–R) peptide]                dH  kcal/mol               -19.4

For Ac-RKRRQTSMTDFYHSKRR-NH2 [p21_(140–156) peptide (wild-type p21 PIP-degron with flanking regions)] , what is its reported dH?
-22.2

For Ac-KKKKQTSMTDFYHSKKK-NH2 [p21_(All–K) peptide] , what is its reported dH?
-18.2
